// data source = patent US6812225B2

Property measured: melting point

Problem: What does the record list as melting point for CN1CCN(c2cccc3c2OC(C(=O)Nc2ccc(N4CCOCC4)cc2)CC3=O)CC1 (racemic) [Example 78] ?
Solution: 215 to 216 °C

Problem: And CN1CCN(c2cc(F)cc3c(=O)cc(C(=O)Nc4ccc(N5CCN(C(=O)CCO)CC5)cc4)oc23)CC1 ?
Solution: 195 to 199 °C

Problem: Proceed to CN1CCN(c2cccc3c(=O)cc(C(=O)Nc4ccc(N5CCOCC5)cc4)oc23)CC1
Solution: 217 to 218 °C (dec.)

Problem: Now give it for CN1CCN(c2cccc3c2OC(C(=O)Nc2ccc(N4CCOCC4)cc2)CC3)CC1 (single isomer, unassigned; (-)) [Example 77] too.
Solution: 205.5 to 207 °C
